tested on: Escherichia coli TOP10; assay: shrunken log2 fold change of peptide-encoding DNA abundance (4.5 h post-induction vs induction); higher = less antimicrobial activity (less host growth inhibition); conditions: time post-induction: 4.5 h; library: site-saturation at positions 5, 18, 19, 20;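 further: peptides expressed intracellularly from a pBAD plasmid library in pooled LB shake-flask culture, induced with 0.3% L-arabinose, DNA abundance read by NGS, three biological replicates, DESeq2 with apeglm shrinkage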
Metric: shrunken log2 fold change

>>> experimental_result("RRIRLRPPRLPRPRPRPLHMPRP")
-0.112
>>> experimental_result("RRIRYRPPRLPRPRPRPTRMPRP")
0.09
>>> experimental_result("RRIRFRPPRLPRPRPRPDTIPRP")
-0.498
>>> experimental_result("RRIRRRPPRLPRPRPRPCCFPRP")
0.151
>>> experimental_result("RRIRFRPPRLPRPRPRPPFAPRP")
0.423
>>> experimental_result("RRIRTRPPRLPRPRPRPMTDPRP")
0.0245
>>> experimental_result("RRIRWRPPRLPRPRPRPTNEPRP")
0.225
>>> experimental_result("RRIRFRPPRLPRPRPRPDSEPRP")
0.104
>>> experimental_result("RRIRPRPPRLPRPRPRPPPLPRP")
0.699
>>> experimental_result("RRIRPRPPRLPRPRPRPQTLPRP")
0.000929
>>> experimental_result("RRIRKRPPRLPRPRPRPLGLPRP")
0.159
>>> experimental_result("RRIRARPPRLPRPRPRPCLDPRP")
0.313
>>> experimental_result("RRIRPRPPRLPRPRPRPSMYPRP")
-0.676
>>> experimental_result("RRIRSRPPRLPRPRPRPVACPRP")
0.271
>>> experimental_result("RRIRWRPPRLPRPRPRPLQEPRP")
0.36
>>> experimental_result("RRIRVRPPRLPRPRPRPVHFPRP")
0.13
>>> experimental_result("RRIRLRPPRLPRPRPRPKHPPRP")
-0.09
>>> experimental_result("RRIRWRPPRLPRPRPRPCAPPRP")
-0.0663
>>> experimental_result("RRIRMRPPRLPRPRPRPPVIPRP")
0.312
>>> experimental_result("RRIRARPPRLPRPRPRPPCPPRP")
0.489
>>> experimental_result("RRIRMRPPRLPRPRPRPRRRPRP")
1.53
>>> experimental_result("RRIRMRPPRLPRPRPRPRRCPRP")
1.08
>>> experimental_result("RRIRRRPPRLPRPRPRPYAMPRP")
-0.121
>>> experimental_result("RRIRLRPPRLPRPRPRPKWDPRP")
0.184
>>> experimental_result("RRIRQRPPRLPRPRPRPNKYPRP")
-0.686
>>> experimental_result("RRIRCRPPRLPRPRPRPVFSPRP")
-0.385
>>> experimental_result("RRIRHRPPRLPRPRPRPEPKPRP")
-0.0206
>>> experimental_result("RRIRRRPPRLPRPRPRPNIVPRP")
-0.171
>>> experimental_result("RRIRIRPPRLPRPRPRPTEHPRP")
-0.449
>>> experimental_result("RRIRVRPPRLPRPRPRPVHMPRP")
-0.0089
>>> experimental_result("RRIRDRPPRLPRPRPRPREPPRP")
0.112
>>> experimental_result("RRIRNRPPRLPRPRPRPPCVPRP")
0.0341
>>> experimental_result("RRIRRRPPRLPRPRPRPWVWPRP")
0.00495
>>> experimental_result("RRIRFRPPRLPRPRPRPHTDPRP")
-0.736
>>> experimental_result("RRIRDRPPRLPRPRPRPKTPPRP")
-0.00153
>>> experimental_result("RRIRLRPPRLPRPRPRPQFVPRP")
-0.0035
>>> experimental_result("RRIRSRPPRLPRPRPRPARLPRP")
0.0986
>>> experimental_result("RRIRVRPPRLPRPRPRPYRGPRP")
-0.402
>>> experimental_result("RRIRERPPRLPRPRPRPQSLPRP")
-0.0684
>>> experimental_result("RRIRHRPPRLPRPRPRPGIWPRP")
0.139
>>> experimental_result("RRIRRRPPRLPRPRPRPVGDPRP")
-0.0486
>>> experimental_result("RRIRLRPPRLPRPRPRPQGAPRP")
-0.145
>>> experimental_result("RRIRTRPPRLPRPRPRPPRKPRP")
0.25
>>> experimental_result("RRIRQRPPRLPRPRPRPHEWPRP")
0.114
>>> experimental_result("RRIRNRPPRLPRPRPRPYEYPRP")
-0.675
>>> experimental_result("RRIRIRPPRLPRPRPRPTLQPRP")
0.00305
>>> experimental_result("RRIRARPPRLPRPRPRPHHDPRP")
-0.0472
>>> experimental_result("RRIRDRPPRLPRPRPRPWTGPRP")
-0.118
>>> experimental_result("RRIRARPPRLPRPRPRPCNNPRP")
-0.352
>>> experimental_result("RRIRIRPPRLPRPRPRPFFYPRP")
-0.416
>>> experimental_result("RRIRMRPPRLPRPRPRPETRPRP")
0.925
